Give measured pIC50 for each item. Keep answers brief.
biological target: Somatostatin receptor type 4 (Homo sapiens, UniProt P31391); test: Displacement of [125I]somatostatin-14 (Tyr11) from human SSTR4 expressed in African green monkey COS1 cell membranes after 2 hrs by scintillation counting method
Sequence (P31391 whole entry): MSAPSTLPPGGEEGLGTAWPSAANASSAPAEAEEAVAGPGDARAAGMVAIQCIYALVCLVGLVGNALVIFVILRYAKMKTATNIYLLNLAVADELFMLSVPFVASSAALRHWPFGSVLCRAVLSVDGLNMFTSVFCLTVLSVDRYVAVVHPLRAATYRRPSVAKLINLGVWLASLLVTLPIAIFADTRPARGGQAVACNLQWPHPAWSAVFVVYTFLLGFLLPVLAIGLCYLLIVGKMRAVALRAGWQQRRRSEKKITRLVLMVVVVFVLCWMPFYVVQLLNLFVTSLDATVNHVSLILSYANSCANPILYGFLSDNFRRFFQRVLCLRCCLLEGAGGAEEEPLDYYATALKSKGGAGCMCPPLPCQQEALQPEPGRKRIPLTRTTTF
Where a SMILES comes first, the peptide text is derived from it. Bridges are numbered along the chain shown (N, C = ends). The star is where a group is joined. NH(β-GlcNAc) = CC(=O)N[C@@H]1[C@@H](O)[C@H](O)[C@@H](CO)O[C@H]1N*; Valol = CC(C)[C@@H](CO)N*
One number for each entry, as −log10 of the molar value.

Worked cases, answers included:
compound	pIC50
Cc1ccc(S[C@H]2O[C@H](CO)[C@@H](O)[C@H](OCCCCN)[C@@H]2NC(=O)Cc2c[nH]c3ccccc23)cc1	5.16
CC(=O)N[C@@H]1[C@@H](O)[C@H](O)[C@@H](CO)O[C@H]1NC(=O)C[C@@H]1NC(=O)[C@H](CCCCN)NC(=O)[C@H](Cc2c[nH]c3ccccc23)NC(=O)[C@H](Cc2ccccc2)NC(=O)[C@@H](NC(=O)[C@H](Cc2ccccc2)NC(C)=O)CSSC[C@@H](C(=O)N[C@H](CO)C(C)C)NC1=O (Ac-FCFWKD(NH(β-GlcNAc))C-Valol; disulfide 2-7)	4.68
NC/C=C/CO[C@H]1[C@H](O)[C@H](OCc2ccccc2)COC/C=C/c2cccc(O)c2C(=O)OC[C@@H]1NC(=O)Cc1c[nH]c2ccccc12	6.23

Lab note: next compound to report on.
query: # return recorded pIC50 for input `CC(C)CCO[C@@H]1[C@@H](O)[C@@H](O)[C@H]2Cn3cc(nn3)COCCCCCCN(CCc3c[nH]c4ccccc34)CC[C@H]1O2`
result: 4.66
